# experiment notes: Oral bioavailability in rat of representative formulations of compound 552
# Type: in vivo
# experimental setup: plasma, iv, 2 mg/kg, IV 2 mg/kg, 5% HP-β-CD in water
reported property: Cmax (ng/mL)
Answers are plain numbers, in ng/mL.

Exercise: Fill blank: measured Cmax of the molecule `CCC[C@@H]1NC(=O)[C@@H](C(C)C)NC(=O)[C@@H](Cc2ccc(O)c(Cl)c2)N[C@@H](C)COc2ccccc2CCCNC1=O` is ____.
Solution: 1720

---

# system under test: CYP3A4 (Homo sapiens, UniProt P08684)
# Construct: purchased BD Gentest, Becton-Dickinson (Supersomes); host or cells: insect cells (microsomes)
# Sequence (P08684 whole entry): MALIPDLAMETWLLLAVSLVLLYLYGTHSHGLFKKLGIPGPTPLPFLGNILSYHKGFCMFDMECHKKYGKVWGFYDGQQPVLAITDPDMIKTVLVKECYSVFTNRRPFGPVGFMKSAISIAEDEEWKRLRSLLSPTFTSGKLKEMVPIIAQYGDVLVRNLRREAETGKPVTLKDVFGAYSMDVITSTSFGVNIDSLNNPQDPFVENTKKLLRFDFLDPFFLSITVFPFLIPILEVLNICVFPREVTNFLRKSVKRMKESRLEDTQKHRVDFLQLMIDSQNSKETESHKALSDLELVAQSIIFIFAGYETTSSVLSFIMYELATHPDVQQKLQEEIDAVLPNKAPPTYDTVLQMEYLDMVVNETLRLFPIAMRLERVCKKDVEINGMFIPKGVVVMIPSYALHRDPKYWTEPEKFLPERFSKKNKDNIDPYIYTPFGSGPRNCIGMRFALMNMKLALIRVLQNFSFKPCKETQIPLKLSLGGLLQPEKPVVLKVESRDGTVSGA
# experiment notes: Cytochrome P450 inhibition, CYP3A4
# Assay type: in vitro ADME
# experimental setup: substrate BFC, Supersomes; read-out: IC50 (μM) 3A4 (BFC)
reported property: IC50 (µM)
Give bare numbers, in µM.

CCC[C@@H]1NC(=O)[C@@H](C(C)C)NC(=O)[C@@H](Cc2cccc(F)c2)N[C@@H](C)COc2ccccc2CCCNC1=O    2.37

Okay, now this compound:
Exercise: Fill blank: measured IC50 of the compound `CCC[C@@H]1NC(=O)[C@@H](C(C)C)NC(=O)[C@@H](Cc2ccc(O)c(C(C)(C)C)c2)NCCOc2ccccc2CCCNC1=O` is ____.
Solution: 0.0192

---

# experiment notes: Oral bioavailability in rat of representative formulations of compound 552
# Type: in vivo
# experimental setup: plasma, po, 8 mg/kg, oral 8 mg/kg, Oleic Acid/Labrafil
reported property: AUC(0-inf) (ng·h/mL)
Numbers only, in ng·h/mL.

Exercise: Fill blank: measured AUC(0-inf) of the molecule `CCC[C@@H]1NC(=O)[C@@H](C(C)C)NC(=O)[C@@H](Cc2ccc(O)c(Cl)c2)N[C@@H](C)COc2ccccc2CCCNC1=O` is ____.
Solution: 357

---

# experiment notes: Plasma concentrations of compound 552 in beagle dogs during the CID study
# Type: in vivo
# experimental setup: male, dog, iv, 7.5 mg/kg, high dose group 7.5 mg/kg/occasion, first day, read-out: average AUC0-t (converted)
reported property: AUC(0-t) (ng·h/mL)
Give bare numbers, in ng·h/mL.

Exercise: Fill blank: measured AUC(0-t) of the compound `CCC[C@@H]1NC(=O)[C@@H](C(C)C)NC(=O)[C@@H](Cc2ccc(O)c(Cl)c2)N[C@@H](C)COc2ccccc2CCCNC1=O` is ____.
Solution: 4100

---

# experiment notes: Oral bioavailability in rat of representative formulations of compound 552
# Assay type: in vivo
# experimental setup: plasma, po, 8 mg/kg, oral 8 mg/kg, Cremophor EL/Lysorbate 80/Soybean oil
reported property: AUC(0-inf) (ng·h/mL)
Give bare numbers, in ng·h/mL.

Exercise: Fill blank: measured AUC(0-inf) of the compound `CCC[C@@H]1NC(=O)[C@@H](C(C)C)NC(=O)[C@@H](Cc2ccc(O)c(Cl)c2)N[C@@H](C)COc2ccccc2CCCNC1=O` is ____.
Solution: 397

---

# system under test: CYP2A6 (Homo sapiens)
# Construct: purchased BD Gentest, Becton-Dickinson (Supersomes); host or cells: insect cells (microsomes)
# Sequence (P11509 whole entry): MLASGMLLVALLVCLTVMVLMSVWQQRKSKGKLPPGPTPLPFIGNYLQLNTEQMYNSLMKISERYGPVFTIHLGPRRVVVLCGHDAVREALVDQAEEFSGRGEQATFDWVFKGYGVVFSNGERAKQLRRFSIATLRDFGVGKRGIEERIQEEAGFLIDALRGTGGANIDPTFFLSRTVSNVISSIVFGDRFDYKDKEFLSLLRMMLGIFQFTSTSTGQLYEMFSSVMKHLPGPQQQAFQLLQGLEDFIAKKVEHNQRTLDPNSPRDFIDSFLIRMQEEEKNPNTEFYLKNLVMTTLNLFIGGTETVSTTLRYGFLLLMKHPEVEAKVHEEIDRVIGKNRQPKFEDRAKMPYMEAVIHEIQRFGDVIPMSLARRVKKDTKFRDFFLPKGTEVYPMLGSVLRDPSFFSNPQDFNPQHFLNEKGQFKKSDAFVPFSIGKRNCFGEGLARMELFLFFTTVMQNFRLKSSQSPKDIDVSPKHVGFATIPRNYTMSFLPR
# experiment notes: Cytochrome P450 inhibition, CYP2A6
# Assay type: in vitro ADME
# experimental setup: Supersomes; read-out: IC50 (μM) 2A6
Record form. Attribute: IC50. Fill in for each entry.

Return reported IC50 values for all items listed beneath this line.
1. CCC[C@@H]1NC(=O)[C@@H](C(C)C)NC(=O)[C@@H](Cc2ccc(O)c(C(C)(C)C)c2)NCCOc2ccccc2CCCNC1=O
2. CCC[C@@H]1NC(=O)[C@@H](C(C)C)NC(=O)[C@@H](Cc2cccc(F)c2)N[C@@H](C)COc2ccccc2CCCNC1=O

Solution:
> 100 µM
> 100 µM
